Focal adhesion kinase 1 (Homo sapiens) IC50, compiled from various sources.

COc1cc(N2CCC(N3CCCCC3)CC2)ccc1Nc1nc2c(c(Nc3ccccc3S(=O)(=O)NC(C)C)n1)CCN2 ... < 20 nM
Cc1nn(C)cc1Nc1cc(Nc2ccc(N3CCN(C(C)C)CC3)c3c2C(=O)N(C)C3)c(C#N)cn1 ... 19 nM
COc1cc(N2CCC(N3CCNCC3)CC2)ccc1Nc1nc2c(c(Nc3ccccc3P(C)(C)=O)n1)CCN2 ... < 100 nM
COc1cc(N2CCC(O)CC2)ccc1Nc1nc2c(c(Nc3ccccc3S(=O)(=O)NC(C)C)n1)CCN2 ... < 20 nM
Cc1cc(Nc2ncc(C(F)(F)F)c(NCc3nccnc3N(C)S(C)(=O)=O)n2)ccc1C(N)=O ... < 0.595 nM

Input: Missing value: IC50, Focal adhesion kinase 1 (Homo sapiens), entry `COc1cc(N2CCOCC2)ccc1Nc1nc2c(c(Nc3ccccc3S(=O)(=O)NCC(C)C)n1)C(C)(C)CN2` . Fill in?
Output: < 20 nM

====

UniProt:Q05397 IC50, compiled from various sources.

As a guide, the following entries are already answered.
CNC(=O)c1ccccc1Nc1cc(Nc2ccc3c(c2)OC[C@H]2CN(C)CCN32)ncc1C(F)(F)F ... < 1 nM
NS(=O)(=O)c1ccc2c(c1)C(=CC1=CC3=C(CCCC3)C1)C(=O)N2 ... > 10000 nM
COc1cc(N2CCOCC2)ccc1Nc1nc2c(c(Nc3ccccc3S(=O)(=O)NCCN(C)C)n1)C(C)(C)CN2 ... < 20 nM

Input: Dear colleague, I am looking for the recorded IC50 of the following compound: `CCCNS(=O)(=O)c1ccccc1Nc1nc(Nc2ccc(N3CCOCC3)cc2OC)nc2c1C1(CC1)CN2`
Output: < 20 nM

====

Ok so here's the combined literature set: IC50 for Focal adhesion kinase 1 (Homo sapiens).

Reference set (6 entries):
CC(C)NS(=O)(=O)c1ccccc1Nc1nc(Nc2ccc(C(F)(F)F)cc2)nc2c1CCN2 ... < 1000 nM
COc1cc(N2CCOCC2)ccc1Nc1nc2c(c(NC3CCCCC3N(C)S(C)(=O)=O)n1)C(C)(C)CN2 (stereo not shown) ... < 100 nM
COCCNCc1ccc(Nc2ncc(C(F)(F)F)c(NCc3cccnc3N(C)S(C)(=O)=O)n2)cc1 ... < 0.595 nM
COc1cc(N2CCOCC2)ccc1Nc1nc2c(c(Nc3ccccc3NC(C)=O)n1)C(C)CN2 (racemic) ... < 200 nM
CC(C)NS(=O)(=O)c1ccccc1Nc1nc(Nc2ccc(N3CCOCC3)cn2)nc2c1CCN2 ... < 20 nM
COc1cc(N2CCS(=O)(=O)CC2)ccc1Nc1nc2c(c(Nc3ccccc3S(=O)(=O)NC(C)C)n1)CCN2 ... < 20 nM

Input: Query (compound): COc1cc(N2CCOCC2)ccc1Nc1nc2c(c(Nc3ccccc3S(=O)(=O)NC(C)C)n1)C(C)CN2 (stereo not shown) ; field requested: IC50
Output: < 20 nM

Input: Given `COc1cc(N2CCOCC2)ccc1Nc1nc2c(c(Nc3ccccc3S(N)(=O)=O)n1)CCN2` , state its recorded IC50.
Output: < 50 nM

Input: Which value of IC50 has been reported for `C[C@@H](CO)NC(=O)c1cccc(Nc2ncc(C(F)(F)F)c(NCc3cccnc3N(C)S(C)(=O)=O)n2)c1` in the records?
Output: 1.06 nM

Input: Quick one: IC50 for `CN(c1cnccc1CNc1nc(Nc2ccc3c(c2)OCCOCCOCCO3)nc2[nH]ccc12)S(C)(=O)=O` ?
Output: 29.4 nM

Input: Please look up its IC50: `CN(c1ncccc1CNc1nc(Nc2ccc(C(=O)OC(C)(C)C)cc2)ncc1C(F)(F)F)S(C)(=O)=O`
Output: 0.6 nM

Input: # lookup: IC50 of `CN(c1ncccc1CNc1nc(Nc2cccc(C#N)c2)ncc1C(F)(F)F)S(C)(=O)=O`
Output: 1.64 nM

Input: Which value of IC50 has been reported for `CNC(=O)c1ccccc1Nc1cc(Nc2cnn(C)c2)ncc1Cl` in the records?
Output: 439 nM

Input: I would be grateful if you could share the reported IC50 for `CN(c1ncccc1CNc1nc(Nc2ccc(C(=O)N3CCC(O)CC3)cc2)ncc1C(F)(F)F)S(C)(=O)=O` .
Output: 0.6 nM

Input: # IC50 lookup, item `CC(C)NS(=O)(=O)c1ccccc1Nc1nc(Nc2ccc(C(=O)N(C)C)cc2)nc2c1CCN2`
Output: < 20 nM

Input: Fill in the blank: the reported IC50 of `CNC(=O)c1ccccc1Nc1nc(Nc2cc(C)nn2C)nc2c1C(C)(C)CN2` is ____.
Output: < 20 nM
